# Test system: Klebsiella pneumoniae GN-69
# Experimental protocol: minimum growth-inhibitory concentration (MIC) in vitro
# Assay type: cell-based
# Measurement setup: GN69; Klebsiella pneumoniae GN-69; in vitro; read-out: MIC-value
Metric: MIC (µg/mL)

INSERT INTO assay_data (compound, target_under_test, unit_spec, readout_number) VALUES
  ('C[C@@H](O/N=C(\C(=O)N[C@@H]1C(=O)N2C(C(=O)[O-])=C(CSc3cc[n+](CCF)cc3)CS[C@H]12)c1csc(N)n1)C(=O)O', 'Klebsiella pneumoniae GN-69', 'µg/mL', 0.05),
  ('CC[n+]1ccc(SCC2=C(C(=O)[O-])N3C(=O)[C@@H](NC(=O)/C(=N\O[C@H](C)C(=O)O)c4csc(N)n4)[C@H]3SC2)cc1', 'Klebsiella pneumoniae GN-69', 'µg/mL', 0.05);

P: CCC(O/N=C(\C(=O)N[C@@H]1C(=O)N2C(C(=O)[O-])=C(CSc3cc[n+](CCF)cc3)CS[C@H]12)c1csc(N)n1)C(=O)O (some centres unmarked)
Q: C[C@H](O/N=C(\C(=O)N[C@@H]1C(=O)N2C(C(=O)[O-])=C(CSc3cc[n+](CCF)cc3)CS[C@H]12)c1csc(N)n1)C(=O)O
R: Nc1nc(/C(=N/OC(C(=O)O)C2CCCCC2)C(=O)N[C@@H]2C(=O)N3C(C(=O)[O-])=C(CSc4cc[n+](CCF)cc4)CS[C@H]23)cs1 (some centres unmarked)
Sort entries by MIC from minimum to maximum value. Output the labels ranked as instructed.
Q, P, R
(Q: 0.05 µg/mL, P: 0.1 µg/mL, R: 1.56 µg/mL)
